target-system: LolB (Vibrio parahaemolyticus)
Construct: Residues 26-212, N-terminal His6 tag
Sequence (Q87RN6 17-203): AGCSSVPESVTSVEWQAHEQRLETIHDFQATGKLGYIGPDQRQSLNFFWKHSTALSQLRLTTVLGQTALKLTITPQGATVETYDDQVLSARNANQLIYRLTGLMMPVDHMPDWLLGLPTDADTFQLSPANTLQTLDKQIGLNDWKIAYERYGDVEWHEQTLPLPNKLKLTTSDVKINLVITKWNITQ
run-description: intrinsic fluorescence quenching of purified LolB, one-site binding fit
pKd: −log10 of the molar value.
measurement-type: pKd

* Oc1cc(O)c2c(c1)O[C@@H](c1ccc(O)c(O)c1)[C@@H](O[C@]1(c3ccc(O)c(O)c3)Oc3cc(O)cc(O)c3[C@@H](O)[C@H]1O)C2 | 4.83

Every entry's value here was drawn from paper PMC9696335.
